Target: T1, IFN-αF (human, UniProt P01568 24-189)
T1 construct: also called IFN-α21; alpha F
T1 chain: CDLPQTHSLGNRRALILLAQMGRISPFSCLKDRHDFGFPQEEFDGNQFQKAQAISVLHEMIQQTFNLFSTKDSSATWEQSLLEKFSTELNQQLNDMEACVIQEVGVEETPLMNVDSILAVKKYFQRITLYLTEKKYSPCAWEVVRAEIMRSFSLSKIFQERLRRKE
Experiment: ProteOn, one antigen concentration
propertyMeasured: pKd
Numbers only, as −log10 of the molar value.

Recorded pKd, per entry:
{"columns": ["binder", "observed"],
 "data": [
  ["IFWM3331 (antibody, V domains shown, VH IFWH591, VL IFWL1073; converted mAb; also called IFWB3066) VH: EVQLVQSGAEVKKPGESLKISCKGSGYSFTSYWIGWVRQMPGKGLEWMGIIDPSDSDTRYSPSFQGQVTISADKSISTAYLQWSSLKASDTAMYYCARHPGLNWAPDFDYWGQGTLVTVSS VL: DIQMTQSPSSLSASVGDRVTITCRASQSIDNSYLNWYQQKPGKAPKLLIYGASSLQSGVPSRFSGSGSGTDFTLTISSLQPEDFATYYCQQGWDWPLTFGQGTKVEIK", 10.89],
  ["IFWM3304 (antibody, V domains shown, VH IFWH591, VL IFWL997; converted mAb; also called IFWB3039) VH: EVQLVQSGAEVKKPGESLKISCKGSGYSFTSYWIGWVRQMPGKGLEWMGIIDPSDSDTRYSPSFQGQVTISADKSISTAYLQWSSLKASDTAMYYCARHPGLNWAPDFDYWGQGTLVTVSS VL: DIQMTQSPSSLSASVGDRVTITCRASQSIGSALNWYQQKPGKAPKLLIYFASSLQSGVPSRFSGSGSGTDFTLTISSLQPEDFATYYCQQSYDFPLTFGQGTKVEIK", 10.49]
]}

In the following, a different binder is considered.
Request: I'd like to know its pKd. The binder in question is IFWM3346 (antibody, V domains shown, VH IFWH624, VL IFWL1001; converted mAb; also called IFWB3081) VH: EVQLVQSGAEVKKPGESLKISCKGSGYSFTSYWIGWVRQMPGKGLEWMGIIDPSDSDTAYSPSFQGQVTISADKSISTAYLQWSSLKASDTAMYYCARHPGLNWAPDFDYWGQGTLVTVSS VL: DIQMTQSPSSLSASVGDRVTITCRASQSIGDFLNWYQQKPGKAPKLLIYFASSLQSGVPSRFSGSGSGTDFTLTISSLQPEDFATYYCQQALDFPLTFGQGTKVEIK
Result: 9.93
